Hi there, I'd appreciate the recorded pIC50 for every entry that follows.
The read-out pIC50 is expressed as -log10 of concentration in moles per litre.

Test item Cc1cc(O)cc(C)c1C[C@H](N)C(=O)N[C@H](CCCNC(=N)N)C(=O)N[C@H]1Cc2ccccc2CN(CC(=O)NCc2ccccc2)C1=O ; Mu-type opioid receptor (Cavia porcellus, UniProt P97266); reported pIC50 was 8.35

Test item Cc1cc(O)cc(C)c1C[C@H](N)C(=O)N[C@H](CCCNC(N)=O)C(=O)N[C@H]1Cc2ccccc2CN(CCC(=O)N(C)Cc2cc(C(F)(F)F)cc(C(F)(F)F)c2)C1=O ; Mu-type opioid receptor (Cavia porcellus, UniProt P97266); reported pIC50 was 8.69

Test item Cc1cc(O)cc(C)c1C[C@H](N)C(=O)N[C@H](CCCNC(N)=O)C(=O)N[C@H]1Cc2ccccc2CN(CCC(=O)N(C)Cc2ccccc2)C1=O ; Mu-type opioid receptor (Cavia porcellus, UniProt P97266); reported pIC50 was 9.02

Test item Cc1cc(O)cc(C)c1C[C@H](N)C(=O)N[C@H](CCCNC(=N)N)C(=O)N[C@H]1Cc2ccccc2CN(CCC(=O)N(C)Cc2cc(C(F)(F)F)cc(C(F)(F)F)c2)C1=O ; Mu-type opioid receptor (Cavia porcellus, UniProt P97266); reported pIC50 was 7.95

---

species: Rattus norvegicus; assay: Toxicity in Wistar rat chronic constriction injury model at 1 nmol, it measured 7 days post CCI challenge; assay type: organism-based; settings: in vivo, icv_or_intrathecal, 168 h
measurement-name: Activity

// Activity lookup, molecule = Cc1cc(O)cc(C)c1C[C@H](N)C(=O)N[C@H](CCCNC(=N)N)C(=O)N[C@H]1Cc2ccccc2CN(CCC(=O)N(C)Cc2ccccc2)C1=O , result: Non-toxic

// Activity lookup, molecule = Cc1cc(O)cc(C)c1C[C@H](N)C(=O)N[C@H](CCCNC(=N)N)C(=O)N[C@H]1Cc2ccccc2CN(CCC(N)=O)C1=O , result: Toxic

// Activity lookup, molecule = Cc1cc(O)cc(C)c1C[C@H](N)C(=O)N[C@H](CCCNC(=N)N)C(=O)N[C@H]1Cc2ccccc2CN(CC(=O)N(C)Cc2cc(C(F)(F)F)cc(C(F)(F)F)c2)C1=O , result: Non-toxic

// Activity lookup, molecule = Cc1cc(O)cc(C)c1C[C@H](N)C(=O)N[C@H](CCCN=C(N)N)C(=O)N[C@H]1Cc2ccccc2CN(CC(N)=O)C1=O , result: Toxic

---

organism: Rattus norvegicus; assay: Selectivity ratio of Ki for rat brain DOR to Ki for rat brain MOR
measurement-name: Ratio Ki
Give only the figure.

// Ratio Ki lookup, molecule = Cc1cc(O)cc(C)c1C[C@H](N)C(=O)N[C@H](CCCNC(N)=O)C(=O)N[C@H]1Cc2ccccc2CN(CCC(=O)N(C)Cc2ccccc2)C1=O , result: 1.7

// Ratio Ki lookup, molecule = Cc1cc(O)cc(C)c1C[C@H](N)C(=O)N[C@H](CCCNC(=N)N)C(=O)N[C@H]1Cc2ccccc2CN(CCC(=O)N(C)Cc2cc(C(F)(F)F)cc(C(F)(F)F)c2)C1=O , result: 25.3

// Ratio Ki lookup, molecule = Cc1cc(O)cc(C)c1C[C@H](N)C(=O)N[C@H](CCCNC(=N)N)C(=O)N[C@H]1Cc2ccccc2CN(CC(=O)NCc2ccccc2)C1=O , result: 4.4

---

target: Delta-type opioid receptor (Mus musculus, UniProt P32300); assay: Activation of DOR in mouse vas deferens
Sequence (P32300 whole entry): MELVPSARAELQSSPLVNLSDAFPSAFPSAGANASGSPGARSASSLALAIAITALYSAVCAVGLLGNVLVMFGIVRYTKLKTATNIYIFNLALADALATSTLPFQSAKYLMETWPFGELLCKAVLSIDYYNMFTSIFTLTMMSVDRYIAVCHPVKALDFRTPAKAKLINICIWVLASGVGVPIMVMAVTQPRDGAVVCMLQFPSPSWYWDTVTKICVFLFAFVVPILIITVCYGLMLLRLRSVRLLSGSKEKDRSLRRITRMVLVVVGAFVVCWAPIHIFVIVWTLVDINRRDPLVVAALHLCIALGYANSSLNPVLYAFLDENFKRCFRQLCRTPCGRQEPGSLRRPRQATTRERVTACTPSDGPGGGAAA
Output criterion met for records whose IC50 is lower than 6 nM, criterion not met for records at or above 6 nM.

(Q) Find out if reported IC50 for Cc1cc(O)cc(C)c1C[C@H](N)C(=O)N[C@H](CCCNC(N)=O)C(=O)N[C@H]1Cc2ccccc2CN(CCC(=O)N(C)Cc2cc(C(F)(F)F)cc(C(F)(F)F)c2)C1=O is less than 6 nM
(A) criterion met

(Q) Find out if reported IC50 for Cc1cc(O)cc(C)c1C[C@H](N)C(=O)N[C@H](CCCNC(=N)N)C(=O)N[C@H]1Cc2ccccc2CN(CCC(=O)N(C)Cc2cc(C(F)(F)F)cc(C(F)(F)F)c2)C1=O is less than 6 nM
(A) criterion not met

(Q) Find out if reported IC50 for Cc1cc(O)cc(C)c1C[C@H](N)C(=O)N[C@H](CCCNC(=N)N)C(=O)N[C@H]1Cc2ccccc2CN(CC(=O)N(Cc2cc(C(F)(F)F)cc(C(F)(F)F)c2)CC(C)C)C1=O is less than 6 nM
(A) criterion not met

(Q) Find out if reported IC50 for Cc1cc(O)cc(C)c1C[C@H](N)C(=O)N[C@H](CCCNC(N)=O)C(=O)N[C@H]1Cc2ccccc2CN(CCC(=O)N(C)Cc2ccccc2)C1=O is less than 6 nM
(A) criterion met

(Q) Find out if reported IC50 for Cc1cc(O)cc(C)c1C[C@H](N)C(=O)N[C@H](CCCNC(=N)N)C(=O)N[C@H]1Cc2ccccc2CN(CC(=O)NCc2ccccc2)C1=O is less than 6 nM
(A) criterion met

(Q) Find out if reported IC50 for Cc1cc(O)cc(C)c1C[C@H](N)C(=O)N[C@H](CCCNC(=N)N)C(=O)N[C@H]1Cc2ccccc2CN(CC(=O)N(Cc2ccccc2)CC(C)C)C1=O is less than 6 nM
(A) criterion not met

---

biological target: Delta-type opioid receptor (Rattus norvegicus); assay: Displacement of [3H]DSLET from rat brain DOR after 2 hrs
Sequence (P33533 whole entry): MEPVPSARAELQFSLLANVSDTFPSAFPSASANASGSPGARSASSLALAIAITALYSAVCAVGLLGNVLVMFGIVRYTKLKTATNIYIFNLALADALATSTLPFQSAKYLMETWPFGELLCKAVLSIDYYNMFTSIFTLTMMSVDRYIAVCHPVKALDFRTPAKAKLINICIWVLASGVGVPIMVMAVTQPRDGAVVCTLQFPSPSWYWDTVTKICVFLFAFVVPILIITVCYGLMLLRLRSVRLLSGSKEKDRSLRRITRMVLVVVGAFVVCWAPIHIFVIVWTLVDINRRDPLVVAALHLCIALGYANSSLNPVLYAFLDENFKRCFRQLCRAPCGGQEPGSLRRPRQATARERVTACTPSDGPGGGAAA
Hi there, I'd appreciate the recorded pKi for every entry that follows.
The read-out pKi is expressed as -log10 of concentration in moles per litre.

// pKi lookup, compound = Cc1cc(O)cc(C)c1C[C@H](N)C(=O)N[C@H](CCCNC(=N)N)C(=O)N[C@H]1Cc2ccccc2CN(CC(=O)NCc2ccccc2)C1=O , result: 9.21

// pKi lookup, compound = Cc1cc(O)cc(C)c1C[C@H](N)C(=O)N[C@H](CCCNC(N)=O)C(=O)N[C@H]1Cc2ccccc2CN(CCC(=O)N(C)Cc2ccccc2)C1=O , result: 9.32

// pKi lookup, compound = Cc1cc(O)cc(C)c1C[C@H](N)C(=O)N[C@H](CCCNC(=N)N)C(=O)N[C@H]1Cc2ccccc2CN(CCC(=O)N(C)Cc2cc(C(F)(F)F)cc(C(F)(F)F)c2)C1=O , result: 8.67

// pKi lookup, compound = Cc1cc(O)cc(C)c1C[C@H](N)C(=O)N[C@H](CCCNC(N)=O)C(=O)N[C@H]1Cc2ccccc2CN(CCC(=O)N(C)Cc2cc(C(F)(F)F)cc(C(F)(F)F)c2)C1=O , result: 9.26

---

target: Substance-P receptor (Homo sapiens, UniProt P25103); test: Displacement of [3H]SP from human NK1 receptor expressed in CHO cells after 20 mins by liquid scintillation counting analysis; type: cell-based
Sequence (P25103 whole entry): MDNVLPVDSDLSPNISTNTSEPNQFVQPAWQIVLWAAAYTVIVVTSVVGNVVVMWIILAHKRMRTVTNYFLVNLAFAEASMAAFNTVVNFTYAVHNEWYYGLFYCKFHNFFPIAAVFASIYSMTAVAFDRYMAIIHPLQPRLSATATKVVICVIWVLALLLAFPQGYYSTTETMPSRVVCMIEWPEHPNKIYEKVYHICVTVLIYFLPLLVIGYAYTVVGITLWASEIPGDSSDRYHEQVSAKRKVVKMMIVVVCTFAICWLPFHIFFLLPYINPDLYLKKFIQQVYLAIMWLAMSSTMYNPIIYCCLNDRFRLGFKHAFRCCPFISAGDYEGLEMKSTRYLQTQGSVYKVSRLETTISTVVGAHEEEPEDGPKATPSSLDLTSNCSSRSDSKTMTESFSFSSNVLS
measurement-name: Ki (nM)
Answer in nM, number only, no unit symbol.

// Ki lookup, compound = Cc1cc(O)cc(C)c1C[C@H](N)C(=O)N[C@H](CCCNC(=N)N)C(=O)N[C@H]1Cc2ccccc2CN(CC(=O)NCc2ccccc2)C1=O , result: 6190

// Ki lookup, compound = Cc1cc(O)cc(C)c1C[C@H](N)C(=O)N[C@H](CCCNC(=N)N)C(=O)N[C@H]1Cc2ccccc2CN(CC(=O)N(Cc2ccccc2)CC(C)C)C1=O , result: 1020

// Ki lookup, compound = Cc1cc(O)cc(C)c1C[C@H](N)C(=O)N[C@H](CCCNC(N)=O)C(=O)N[C@H]1Cc2ccccc2CN(CCC(=O)N(C)Cc2ccccc2)C1=O , result: 3000

// Ki lookup, compound = Cc1cc(O)cc(C)c1C[C@H](N)C(=O)N[C@H](CCCNC(=N)N)C(=O)N[C@H]1Cc2ccccc2CN(CC(=O)N(Cc2cc(C(F)(F)F)cc(C(F)(F)F)c2)CC(C)C)C1=O , result: 35

Numbers sourced from ChEMBL document CHEMBL3407477.
